- System: 379773-124-R-J2-PDC complex spheroids, viability % test/control;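 further: compound exposure lasted seven days before the viability readout; 100% = DMSO vehicle control wells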
- procedure_text: Anticancer human tumor 379773-124-R-J2-PDC patient-derived endometrial carcinoma cell line growth inhibition [CLK]
- test_settings: second compound 0.0316 µM; first compound 0.1 µM; active compounds read low
measurement_name: viability, T/C (%)
Express the result in % but write the number alone.

Example cases with answers are listed next.
molecule	measurement_name	reported_measurement
O=C(c1cc(Cc2n[nH]c(=O)c3ccccc23)ccc1F)N1CCN(C(=O)C2CC2)CC1 + CN1CCN(c2cc(C(=O)Nc3cc4cc(-c5cnn(C)c5)ccc4cn3)ccn2)CC1	viability, T/C	98.7
CCCS(=O)(=O)Nc1ccc(F)c(C(=O)c2c[nH]c3ncc(-c4ccc(Cl)cc4)cc23)c1F + CN1CCN(c2cc(C(=O)Nc3cc4cc(-c5cnn(C)c5)ccc4cn3)ccn2)CC1	viability, T/C	86.1

QUERY: Which viability, T/C value belongs to CC(CO)NC(=O)c1cc(-c2ccc(Cl)cc2)nn(-c2cnn(C)c2)c1=O (stereo not given) + CNC(=O)c1ccc(Nc2nc(OC3CCCC3)c3c(-c4ccc5nc(C)oc5c4)c[nH]c3n2)c(OC)c1 ?
RESULT: 80.9

QUERY: Which viability, T/C value belongs to CC1(C)CCC(CN2CCN(c3ccc(C(=O)NS(=O)(=O)c4ccc(NCC5CCOCC5)c([N+](=O)[O-])c4)c(Oc4cnc5[nH]ccc5c4)c3)CC2)=C(c2ccc(Cl)cc2)C1 + CNC(=O)c1ccc(Nc2nc(OC3CCCC3)c3c(-c4ccc5nc(C)oc5c4)c[nH]c3n2)c(OC)c1 ?
RESULT: 79.2

QUERY: Which viability, T/C value belongs to Nc1ccn(C2OC(CO)C(O)C2(F)F)c(=O)n1 (stereo not given) + CNC(=O)c1ccc(Nc2nc(OC3CCCC3)c3c(-c4ccc5nc(C)oc5c4)c[nH]c3n2)c(OC)c1 ?
RESULT: 3.76
